Reference source for all entries: ChEMBL document CHEMBL1152338

# IC50 values compiled below
# Test system: HT-29
# EXPERIMENTAL_DETAILS: Cytotoxicity against human HT-29 cells
# Assay type: functional, cell-based
# number only, unit µg/mL dropped from output

Consider the following illustrative entries.
- O=C1C2=C3C4=[N+](CCc5c[nH]c1c54)[C@@H]1[C@H](O)C=C4S[C@@H](C[C@@]43[C@H]1O)N2: 0.1
- O=C1C[C@H]2S[C@H]3C[C@]2(C=C1Br)C1=C(N3)C(=O)c2[nH]cc3c2C1=NCC3: 0.05

Field request: IC50 | item: C[N+]1=C2C=C(NCCc3ccc(O)cc3)C(=O)c3[nH]cc(c32)CC1
5

Field request: IC50 | item: CN1CCc2cn(C)c3c2C1=CC(=O)C3=O
5

Field request: IC50 | item: O=C1C2=C(C3=NCCc4c[nH]c1c43)[C@]13C=C(Br)[C@@H](O)C[C@H]1S[C@@H](C3)N2
0.1
